Molecular target: Human ATX protein (Homo sapiens, UniProt Q13822)
Construct: made in house
Assay: Autotaxin (ATX) assay, FRET with FS-3 substrate
Type: biochemical
Conditions: upper bound bins (no greater than 100, 250 or 500 nM); FS-3 2 μM, ATX 1.0 μg/mL
pIC50: −log10 of the molar value.
measured attribute: pIC50

State the recorded pIC50 for this entry: O=C(CN1CC(C(=O)O)C1)c1cc2n(n1)CCCN(C(=O)OCc1cc(Cl)cc(C(F)(F)F)c1)C2
≥ 7.00

State the recorded pIC50 for this entry: CC(c1cc2n(n1)CCN(C(=O)OCc1cc(C(F)(F)F)cc(C(F)(F)F)c1)C2)N1C2CCC1CN(C(=O)OC(C)(C)C)C2 (stereo not drawn)
≥ 7.00

Now turn to the next molecule.
State the recorded pIC50 for this entry: CC(C)(C)OC(=O)N1CCN(C(=O)c2cc3n(n2)CCN(C(=O)OCc2cc(C(F)(F)F)cc(C(F)(F)F)c2)C3)CC1(C)C
≥ 7.00
